Consider the following compounds; for each one, report its pKi.
# experimental.system: FKBP12 (Homo sapiens, UniProt P62942)
# Sequence (P62942 whole entry, species assumed): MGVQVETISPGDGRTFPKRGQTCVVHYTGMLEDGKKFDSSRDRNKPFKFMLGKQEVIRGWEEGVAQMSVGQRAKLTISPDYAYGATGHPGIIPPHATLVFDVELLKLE
# protocol.text: Ki test procedure: inhibition of peptidyl-prolyl isomerase (rotamase) activity, chymotrypsin-coupled assay
# Format: biochemical
# test.settings: apparent Ki, numerical, read-out: Ki
One number for each entry, as −log10 of the molar value.

Answered examples (2):
COc1ccc(CCCSC(=O)C2CCCCN2S(=O)(=O)c2ccccc2)cc1 (racemic): 6.71
O=C(SCCCc1cccc2ccccc12)[C@@H]1CCCN1S(=O)(=O)Cc1ccccc1: 6.17

// each compound listed below needs its pKi
1. COc1ccc(CCCSC(=O)[C@@H]2CCCN2S(=O)(=O)c2ccc(C)cc2)cc1
2. Cc1ccc(S(=O)(=O)N2CCCCC2C(=O)SCCCc2ccc(C(F)(F)F)cc2)cc1 (racemic)

OUT:
6.84
7.16

// each compound listed below needs its pKi
1. CCc1ccc(S(=O)(=O)N2CCC[C@H]2C(=O)SCCc2ccccc2)cc1
2. COc1ccc(CCCSC(=O)C2CCCCN2S(=O)(=O)Cc2ccccc2)cc1 (racemic)

OUT:
[6.14, 7.09]

// each compound listed below needs its pKi
1. COc1ccc(CCCSC(=O)[C@@H]2CCCN2S(=O)(=O)c2ccccc2)cc1
2. COc1ccc(CCCSC(=O)[C@@H]2CCCN2S(=O)(=O)Cc2ccccc2)cc1
3. COc1ccc(CCCSC(=O)[C@@H]2CCCCN2S(=O)(=O)c2ccc(C)cc2)cc1 (racemic)

OUT:
1: 6.69; 2: 7.66; 3: 6.18

====

# experimental.system: UniProt:P62942
# protocol.text: Ki test procedure: inhibition of peptidyl-prolyl isomerase (rotamase) activity, chymotrypsin-coupled assay
# Type: biochemical
# test.settings: apparent Ki, ranked potency, read-out: Kl
pKi: −log10 of the molar value.
Consider the following molecules; for each one, report its pKi.

// each molecule listed below needs its pKi
1. COc1ccc(CCCSC(=O)[C@@H]2CCCN2S(=O)(=O)Cc2ccccc2)cc1
2. O=C(SCCCc1ccccc1)[C@@H]1CCCN1S(=O)(=O)Cc1ccccc1
3. O=C(SCCCc1cccc2ccccc12)[C@@H]1CCCN1S(=O)(=O)Cc1ccccc1
4. COc1ccc(CCCSC(=O)C2CCCCN2S(=O)(=O)c2ccccc2)cc1 (racemic)
5. COc1ccc(CCCSC(=O)[C@@H]2CCCN2S(=O)(=O)c2ccccc2)cc1

OUT:
1: 7.30 to 9.00; 2: 6.70 to 7.29; 3: < 6.30; 4: 6.70 to 7.29; 5: 6.30 to 6.70

====

# experimental.system: FKBP12 (Homo sapiens, UniProt P62942)
# protocol.text: Ki test procedure: inhibition of peptidyl-prolyl isomerase (rotamase) activity, chymotrypsin-coupled assay
# Type: biochemical
# test.settings: apparent Ki, ranked potency, read-out: Kl
measure.name: Ki

COc1ccc(CCCSC(=O)[C@@H]2CCCN2S(=O)(=O)c2ccc(C)cc2)cc1: 51 to 200 nM
CCc1ccc(S(=O)(=O)N2CCC[C@H]2C(=O)SCCc2ccccc2)cc1: > 500 nM
COc1ccc(CCCSC(=O)[C@@H]2CCCCN2S(=O)(=O)c2ccc(C)cc2)cc1 (racemic): > 500 nM

Next compound, Ki to be filled in.
IN: Note down Ki recorded for Cc1ccc(S(=O)(=O)N2CCCCC2C(=O)SCCCc2ccc(C(F)(F)F)cc2)cc1 (racemic)
OUT: 51 to 200 nM
